Ref: patent US12448368B2

- assay_target: androgen receptor (AR) (Homo sapiens, UniProt P10275, T878A)
- Construct: LNCaP cells expressing ARR2PB-FireflyLuc and CMV-RenillaLuc; endogenous in cells; host or cells: LNCaP cells carrying ARR2PB-FireflyLuc and CMV-RenillaLuc reporters
- test_details: AR reporter assay in LNCaP cells expressing ARR2PB-FireflyLuc and CMV-RenillaLuc, antagonist mode (% remaining activity, IC50)
- Assay type: cell-based
- protocol_conditions: 48 h at 37° C., class symbols A-D, read-out: IC50
pIC50: −log10 of the molar value.
measured_metric: pIC50

Answered cases to consult:
Cc1nc(-c2n[nH]c3cc(F)c(F)cc23)ccc1C#N [Compound 103] :: > 7.00
Cc1nc(-c2c[nH]c3c(C#N)cccc23)cnc1O[C@@H](C)[C@H](C)O [Compound 334] :: 5.00 to 6.00

Please find the next compound below.
(Q) For the compound COCCOc1nc(-c2c[nH]c3c(C#N)cccc23)ccc1N [Compound 170] , what pIC50 is on record?
(A) 6.00 to 7.00

----------
- assay_target: androgen receptor (AR) (Homo sapiens, UniProt P10275, T878A)
- Construct: LNCaP cells expressing ARR2PB-FireflyLuc and CMV-RenillaLuc; endogenous in cells; host or cells: LNCaP cells carrying ARR2PB-FireflyLuc and CMV-RenillaLuc reporters
- Sequence (P10275 1-920 T878A): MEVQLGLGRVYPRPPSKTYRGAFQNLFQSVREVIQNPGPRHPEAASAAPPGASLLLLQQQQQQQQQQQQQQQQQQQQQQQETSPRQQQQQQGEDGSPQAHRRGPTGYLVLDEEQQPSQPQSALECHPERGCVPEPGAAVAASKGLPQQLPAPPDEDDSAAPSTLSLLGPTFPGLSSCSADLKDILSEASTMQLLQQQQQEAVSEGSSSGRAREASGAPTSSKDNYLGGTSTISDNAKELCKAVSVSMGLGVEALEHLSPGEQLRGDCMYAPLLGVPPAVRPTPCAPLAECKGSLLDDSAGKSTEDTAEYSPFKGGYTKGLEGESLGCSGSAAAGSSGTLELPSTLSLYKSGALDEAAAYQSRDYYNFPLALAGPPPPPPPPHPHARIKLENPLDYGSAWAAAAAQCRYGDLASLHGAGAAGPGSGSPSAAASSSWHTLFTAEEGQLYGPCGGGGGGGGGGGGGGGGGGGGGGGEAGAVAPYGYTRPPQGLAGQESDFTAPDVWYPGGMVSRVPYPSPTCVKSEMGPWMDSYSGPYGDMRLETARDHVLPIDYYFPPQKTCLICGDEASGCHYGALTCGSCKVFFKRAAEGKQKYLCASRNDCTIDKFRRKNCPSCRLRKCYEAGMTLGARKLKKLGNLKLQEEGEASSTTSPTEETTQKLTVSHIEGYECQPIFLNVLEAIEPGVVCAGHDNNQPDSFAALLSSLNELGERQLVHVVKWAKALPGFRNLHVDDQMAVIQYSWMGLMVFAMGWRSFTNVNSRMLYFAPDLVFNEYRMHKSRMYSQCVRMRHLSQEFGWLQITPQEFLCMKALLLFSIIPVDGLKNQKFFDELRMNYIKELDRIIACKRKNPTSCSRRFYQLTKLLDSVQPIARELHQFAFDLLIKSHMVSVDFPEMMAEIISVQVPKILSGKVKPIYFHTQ
- test_details: AR reporter assay in LNCaP cells expressing ARR2PB-FireflyLuc and CMV-RenillaLuc, antagonist mode (% remaining activity, IC50)
- Type: cell-based
- protocol_conditions: 48 h at 37° C., class symbols A-D, read-out: IC50
pIC50: −log10 of the molar value.
Measured pIC50, listed per entry.

Sample answers from the record:
Cc1nc(-c2c[nH]c3c(C#N)cccc23)ccc1NC1CCOC1 (stereo not shown) [Compound 164] :: 6.00 to 7.00
Cc1nc(-c2n[nH]c3cc(F)c(F)cc23)ccc1OC1CCNC1 (stereo not shown) [Compound 255] :: 5.00 to 6.00
CC1(C)CCNc2ccc(-c3n[nH]c4ccccc34)nc21 [Compound 77] :: 6.00 to 7.00
Cc1nc(-c2c[nH]c3c(C#N)cccc23)cnc1N1CCC(N)C1 (stereo not shown) [Compound 227] :: < 5.00
Cc1nc(-c2coc3c(C#N)cccc23)cnc1N [Compound 310] :: < 5.00

(Q) pIC50 lookup needed for N#Cc1cccc2c(-c3cnccn3)c[nH]c12 [Compound 174] , thanks.
(A) 5.00 to 6.00

(Q) Reported pIC50 for Cc1nc(-c2c[nH]c3c(-c4nnco4)cccc23)ccc1N [Compound 144] : what is it?
(A) < 5.00
